Data credit: PubChem BioAssay AID1902

assayed target: S. pyogenes SKKanGAS, kanamycin survival, BacTiterGlo, 6 h
assay: S. pyogenes SKKanGAS kanamycin growth inhibitors – SKKanGAS strain, luminescence, dose confirmation, streptokinase promoter inhibitor project, dose response (AID 1902);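 further: lower survival reflects blocked streptokinase promoter driving kanamycin resistance gene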
Active and inactive are the calls of the source.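 How the source made its calls: active means EC50 no more than a set limit of log units above the highest dose; inactive means the rest.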
One label from this list, please: active, inactive

These solved cases illustrate the format of a correct answer.
C=CCn1c(COc2ccccc2)nnc1SCC(=O)N/N=C/c1cc(Cl)ccc1O    active
N#Cc1nc(-c2ccccc2Cl)oc1N1CCN(C(=O)c2ccco2)CC1    inactive
Cc1ccc(NC2=C/C(=N\S(=O)(=O)c3cccs3)c3ccccc3C2=O)c(C)c1    active
O=S(=O)(Nc1nccs1)c1ccc(Nc2nnc(-c3ccccc3)c3ccccc23)cc1    active

Call for entry `CCOC(=O)c1ccc(NC(=O)c2sc3nc4n(c(=O)c3c2C)CCC4)cc1` :
active
